biological target: Toll-like receptor 1/2 (Mus musculus); assay: Agonist activity at TLR2/TLR1 in mouse Macrophage cell line
# strict inequality: EC50 < 600 nM yields fulfilled, everything else yields not fulfilled

| structure.smiles | qualitative.label |
| --- | --- |
| N#Cc1ccc([C@H]2C[C@@H]2NC(=O)[C@@H]2CN(C(=O)c3ccc(C(=O)N4C[C@@H](C(=O)N[C@H]5C[C@@H]5c5ccc(C#N)cc5)[C@H](C(=O)N[C@@H]5C[C@H]5c5ccc(C#N)cc5)C4)cc3)C[C@H]2C(=O)N[C@H]2C[C@@H]2c2ccc(C#N)cc2)cc1 | not fulfilled |
| C#CCNc1cc(C(=O)N2C[C@@H](C(=O)N[C@H]3C[C@@H]3c3ccccc3)[C@H](C(=O)N[C@H]3C[C@@H]3c3ccccc3)C2)ccc1C(=O)N1C[C@@H](C(=O)N[C@H]2C[C@@H]2c2ccccc2)[C@H](C(=O)N[C@H]2C[C@@H]2c2ccccc2)C1 | not fulfilled |
| O=C(N[C@H]1C[C@@H]1c1ccccc1)[C@@H]1CN(C(=O)c2c(F)c(F)c(C(=O)N3C[C@@H](C(=O)N[C@H]4C[C@@H]4c4ccccc4)[C@H](C(=O)N[C@H]4C[C@@H]4c4ccccc4)C3)c(F)c2F)C[C@H]1C(=O)N[C@H]1C[C@@H]1c1ccccc1 | not fulfilled |
| O=C(N[C@H]1C[C@@H]1c1ccccc1)[C@@H]1CN(C(=O)C/C=C/CC(=O)N2C[C@@H](C(=O)N[C@H]3C[C@@H]3c3ccccc3)[C@H](C(=O)N[C@H]3C[C@@H]3c3ccccc3)C2)C[C@H]1C(=O)N[C@H]1C[C@@H]1c1ccccc1 | not fulfilled |
| O=C(N[C@H]1C[C@@H]1c1ccccc1)[C@@H]1CN(C(=O)c2cc(Cl)c(C(=O)N3C[C@@H](C(=O)N[C@H]4C[C@@H]4c4ccccc4)[C@H](C(=O)N[C@H]4C[C@@H]4c4ccccc4)C3)cc2Cl)C[C@H]1C(=O)N[C@H]1C[C@@H]1c1ccccc1 | not fulfilled |
| COC(=O)[C@@H]1CN(C(=O)c2ccc(C(=O)N3C[C@@H](C(=O)N[C@H]4C[C@@H]4c4ccccc4)[C@H](C(=O)N[C@@H]4C[C@H]4c4ccccc4)C3)cc2)C[C@H]1C(=O)N[C@H]1C[C@@H]1c1ccccc1 | not fulfilled |
| O=C(NCCc1ccc(F)cc1)[C@@H]1CN(C(=O)COCC(=O)N2C[C@@H](C(=O)NCCc3ccc(F)cc3)[C@H](C(=O)NCCc3ccc(F)cc3)C2)C[C@H]1C(=O)NCCc1ccc(F)cc1 | not fulfilled |
| CCCCCCCCCCCCCCNC(=O)[C@@H]1CN(C(=O)c2ccc(C(=O)N3C[C@@H](C(=O)N[C@H]4C[C@@H]4c4ccccc4)[C@H](C(=O)N[C@@H]4C[C@H]4c4ccccc4)C3)cc2)C[C@H]1C(=O)NCCCCCCCCCCCCCC | fulfilled |
| O=C(N[C@H]1C[C@@H]1c1ccccc1)[C@@H]1CN(C(=O)/C=C/C=C/C(=O)N2C[C@@H](C(=O)N[C@H]3C[C@@H]3c3ccccc3)[C@H](C(=O)N[C@H]3C[C@@H]3c3ccccc3)C2)C[C@H]1C(=O)N[C@H]1C[C@@H]1c1ccccc1 | fulfilled |
| CCCCCCCCCCCCCCNC(=O)[C@@H]1CN(C(=O)c2ccc(C(=O)N3C[C@@H](C(=O)N[C@H]4C[C@@H]4c4ccccc4)[C@H](C(=O)N[C@@H]4C[C@H]4c4ccccc4)C3)cc2)C[C@H]1C(=O)N[C@H]1C[C@@H]1c1ccccc1 | fulfilled |
| O=C(N[C@H]1C[C@@H]1c1ccccc1)[C@@H]1CN(C(=O)c2ccc(C(=O)N3C[C@@H](C(=O)N[C@H]4C[C@@H]4c4ccccc4)[C@H](C(=O)N[C@H]4C[C@@H]4c4ccccc4)C3)c(Br)c2)C[C@H]1C(=O)N[C@H]1C[C@@H]1c1ccccc1 | not fulfilled |
| COC(=O)[C@@H]1CN(C(=O)c2ccc(C(=O)N3C[C@@H](C(=O)N[C@@H]4C[C@H]4c4ccccc4)[C@H](C(=O)OC)C3)cc2)C[C@H]1C(=O)N[C@@H]1C[C@H]1c1ccccc1 | not fulfilled |
| O=C(NCCc1ccc(F)cc1)[C@@H]1CN(C(=O)[C@H]2CC[C@H](C(=O)N3C[C@@H](C(=O)NCCc4ccc(F)cc4)[C@H](C(=O)NCCc4ccc(F)cc4)C3)CC2)C[C@H]1C(=O)NCCc1ccc(F)cc1 | not fulfilled |
| CCCCCCNC(=O)[C@@H]1CN(C(=O)c2ccc(C(=O)N3C[C@@H](C(=O)NCCCCCC)[C@H](C(=O)N[C@@H]4C[C@H]4c4ccccc4)C3)cc2)C[C@H]1C(=O)N[C@@H]1C[C@H]1c1ccccc1 | not fulfilled |
| O=C(N[C@H]1C[C@@H]1c1ccccc1)[C@@H]1CN(C(=O)c2ccc3cc(C(=O)N4C[C@@H](C(=O)N[C@H]5C[C@@H]5c5ccccc5)[C@H](C(=O)N[C@H]5C[C@@H]5c5ccccc5)C4)ccc3c2)C[C@H]1C(=O)N[C@H]1C[C@@H]1c1ccccc1 | fulfilled |
| O=C(NCCc1ccc(F)cc1)[C@@H]1CN(C(=O)c2ccc(C(=O)N3C[C@@H](C(=O)NCCc4ccc(F)cc4)[C@H](C(=O)NCCc4ccc(F)cc4)C3)cc2)C[C@H]1C(=O)NCCc1ccc(F)cc1 | not fulfilled |

====

target: Toll-like receptor 1/2 (Mus musculus); test: Agonist activity at TLR2/TLR1 in mouse Macrophage cell line
pEC50: −log10 of the molar value.
experimental.readout: pEC50

| structure.smiles | target.or.system | comparator | meas.value |
| --- | --- | --- | --- |
| CCCCCCCCCCCCCCCCNC(=O)[C@@H]1CN(C(=O)c2ccc(C(=O)N3C[C@@H](C(=O)N[C@H]4C[C@@H]4c4ccccc4)[C@H](C(=O)N[C@@H]4C[C@H]4c4ccccc4)C3)cc2)C[C@H]1C(=O)N[C@H]1C[C@@H]1c1ccccc1 | Toll-like receptor 1/2 (Mus musculus) | = | 8.59 |
| CCCCCCCCCCCCNC(=O)[C@@H]1CN(C(=O)c2ccc(C(=O)N3C[C@@H](C(=O)N[C@H]4C[C@@H]4c4ccccc4)[C@H](C(=O)N[C@@H]4C[C@H]4c4ccccc4)C3)cc2)C[C@H]1C(=O)N[C@H]1C[C@@H]1c1ccccc1 | Toll-like receptor 1/2 (Mus musculus) | = | 8.68 |
| O=C(N[C@H]1C[C@@H]1c1ccccc1)[C@@H]1CN(C(=O)c2ccc(C(=O)N3C[C@@H](C(=O)N[C@H]4C[C@@H]4c4ccccc4)[C@H](C(=O)N[C@H]4C[C@@H]4c4ccccc4)C3)s2)C[C@H]1C(=O)N[C@H]1C[C@@H]1c1ccccc1 | Toll-like receptor 1/2 (Mus musculus) | < | 5.30 |
| O=C(N[C@H]1C[C@@H]1c1ccc(F)cc1)[C@@H]1CN(C(=O)c2ccc(C(=O)N3C[C@@H](C(=O)N[C@H]4C[C@@H]4c4ccc(F)cc4)[C@H](C(=O)N[C@@H]4C[C@H]4c4ccc(F)cc4)C3)cc2)C[C@H]1C(=O)N[C@H]1C[C@@H]1c1ccc(F)cc1 | Toll-like receptor 1/2 (Mus musculus) | = | 8.92 |
| O=C(N[C@H]1C[C@@H]1c1ccccc1)[C@@H]1CN(C(=O)c2ccc(C(=O)N3C[C@@H](C(=O)N[C@H]4C[C@@H]4c4ccccc4)[C@H](C(=O)N[C@H]4C[C@@H]4c4ccccc4)C3)nc2)C[C@H]1C(=O)N[C@H]1C[C@@H]1c1ccccc1 | Toll-like receptor 1/2 (Mus musculus) | = | 6.57 |
| CCCCCCCCNC(=O)[C@@H]1CN(C(=O)c2ccc(C(=O)N3C[C@@H](C(=O)NCCCCCCCC)[C@H](C(=O)N[C@@H]4C[C@H]4c4ccccc4)C3)cc2)C[C@H]1C(=O)N[C@@H]1C[C@H]1c1ccccc1 | Toll-like receptor 1/2 (Mus musculus) | = | 6.15 |
| O=C(N[C@H]1C[C@@H]1c1ccccc1)[C@@H]1CN(C(=O)COCC(=O)N2C[C@@H](C(=O)N[C@H]3C[C@@H]3c3ccccc3)[C@H](C(=O)N[C@H]3C[C@@H]3c3ccccc3)C2)C[C@H]1C(=O)N[C@H]1C[C@@H]1c1ccccc1 | Toll-like receptor 1/2 (Mus musculus) | < | 5.30 |
| CCCCCCCCCCCCNC(=O)[C@@H]1CN(C(=O)c2ccc(C(=O)N3C[C@@H](C(=O)NCCCCCCCCCCCC)[C@H](C(=O)NCCCCCCCCCCCC)C3)cc2)C[C@H]1C(=O)NCCCCCCCCCCCC | Toll-like receptor 1/2 (Mus musculus) | < | 8.30 |
| CCCCCCCCCCNC(=O)[C@@H]1CN(C(=O)c2ccc(C(=O)N3C[C@@H](C(=O)N[C@H]4C[C@@H]4c4ccccc4)[C@H](C(=O)N[C@@H]4C[C@H]4c4ccccc4)C3)cc2)C[C@H]1C(=O)NCCCCCCCCCC | Toll-like receptor 1/2 (Mus musculus) | = | 8.40 |
